- system-name: human ether-à-go-go-related gene (hERG) potassium channel (human);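 also: peak tail current of the secondary pulse compared with the same well before compound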
- Sequence (Q12809 whole entry, looked up): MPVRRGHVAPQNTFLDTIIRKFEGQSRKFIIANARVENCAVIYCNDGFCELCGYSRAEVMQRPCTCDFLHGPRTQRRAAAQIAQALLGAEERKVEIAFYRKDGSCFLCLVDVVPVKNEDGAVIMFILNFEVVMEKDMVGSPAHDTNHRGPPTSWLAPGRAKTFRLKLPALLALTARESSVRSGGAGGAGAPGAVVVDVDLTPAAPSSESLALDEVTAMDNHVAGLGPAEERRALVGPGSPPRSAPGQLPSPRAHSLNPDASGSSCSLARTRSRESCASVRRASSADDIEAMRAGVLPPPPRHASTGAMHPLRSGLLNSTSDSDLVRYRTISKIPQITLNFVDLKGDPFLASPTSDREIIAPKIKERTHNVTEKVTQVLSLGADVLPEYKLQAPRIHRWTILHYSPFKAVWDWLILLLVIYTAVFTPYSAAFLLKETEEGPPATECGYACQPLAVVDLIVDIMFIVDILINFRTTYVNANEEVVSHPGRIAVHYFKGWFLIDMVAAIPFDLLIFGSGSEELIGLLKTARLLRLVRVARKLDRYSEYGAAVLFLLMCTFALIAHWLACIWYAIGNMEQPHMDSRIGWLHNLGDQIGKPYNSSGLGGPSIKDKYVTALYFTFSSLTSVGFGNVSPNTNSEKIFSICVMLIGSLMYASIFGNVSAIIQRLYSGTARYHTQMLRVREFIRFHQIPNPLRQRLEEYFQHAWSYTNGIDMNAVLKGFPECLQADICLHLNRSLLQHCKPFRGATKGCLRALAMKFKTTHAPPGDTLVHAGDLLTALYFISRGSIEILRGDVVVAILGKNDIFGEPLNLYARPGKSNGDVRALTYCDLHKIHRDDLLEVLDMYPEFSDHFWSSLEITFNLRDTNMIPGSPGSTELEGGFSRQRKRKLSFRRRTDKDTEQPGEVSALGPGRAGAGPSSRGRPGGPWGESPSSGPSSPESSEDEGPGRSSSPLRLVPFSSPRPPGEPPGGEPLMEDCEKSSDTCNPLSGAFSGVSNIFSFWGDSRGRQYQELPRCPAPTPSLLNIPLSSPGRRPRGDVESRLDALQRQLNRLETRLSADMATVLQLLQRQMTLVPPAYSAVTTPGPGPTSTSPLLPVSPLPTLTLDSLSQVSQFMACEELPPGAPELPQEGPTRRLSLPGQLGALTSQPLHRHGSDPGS
- assay-name: primary screen, population patch clamp on CHO cells stably expressing hERG; higher = less effect of the substance
In all, about 310,000 compounds went through this assay and about 14,000 (4.5%) showed an effect of 50% or more. Effects have a minus sign here. Only a selection was taken, and strong results are over-represented in it overall.
Each entry gets no (0) if its hERG current change (%, negative = inhibition) at 10uM stays under -20%, and yes (1) if its hERG current change (%, negative = inhibition) at 10uM is -20% or above.

compound	classification
Clc1ccc2c(NCc3ccccc3)ccnc2c1	no (0)
CCOc1ccc(Cc2nn[nH]n2)cc1	yes (1)
O=C(NCCCNc1ccc([N+](=O)[O-])cc1Cl)c1ccccc1F	yes (1)
O=S(=O)(NCc1ccccc1)c1ccc(Cl)c(S(=O)(=O)NCc2ccccc2)c1	no (0)
O=C(NCCNc1ccnc2cc(Cl)ccc12)c1ccccc1F	no (0)

**Q:** Answer whether hERG current change (%, negative = inhibition) at 10uM of O=C(c1cc(COc2ccccc2)on1)N1CCCC(OCc2cccnc2)C1 (stereo not shown) is greater than or equal to -20%.
**A:** yes (1)

**Q:** Answer whether hERG current change (%, negative = inhibition) at 10uM of Clc1ccc2c(NCc3ccccn3)ccnc2c1 is greater than or equal to -20%.
**A:** no (0)

Measured values drawn from paper PMC4336329 for this set.
